# System: IA-LM
# assay: relative viability (nuclei count vs DMSO), 5 days (fraction); higher = more cells survive
# details: first compound 0.5 µM
assay endpoint: relative viability
Could you respond with only the numeric value?

compound	tgt	relative viability
CC1(C)CCC(c2ccc(Cl)cc2)=C(CN2CCN(c3ccc(C(=O)NS(=O)(=O)c4ccc(N[C@H](CCN5CCOCC5)CSc5ccccc5)c(S(=O)(=O)C(F)(F)F)c4)cc3)CC2)C1 [Navitoclax] + O=C(CCCCCCC(=O)Nc1ccccc1)NO [Vorinostat] (partner 1 µM)	IA-LM	0.965
CC1(C)CCC(c2ccc(Cl)cc2)=C(CN2CCN(c3ccc(C(=O)NS(=O)(=O)c4ccc(N[C@H](CCN5CCOCC5)CSc5ccccc5)c(S(=O)(=O)C(F)(F)F)c4)cc3)CC2)C1 [Navitoclax] + COc1cc2c(Oc3ccc(NC(=O)C4(C(=O)Nc5ccc(F)cc5)CC4)cc3F)ccnc2cc1OCCCN1CCOCC1 [Foretinib] (partner 0.25 µM)	IA-LM	1.18

In: Item under review: CC1(C)CCC(c2ccc(Cl)cc2)=C(CN2CCN(c3ccc(C(=O)NS(=O)(=O)c4ccc(N[C@H](CCN5CCOCC5)CSc5ccccc5)c(S(=O)(=O)C(F)(F)F)c4)cc3)CC2)C1 [Navitoclax] + C[C@]1(O)C[C@@H](c2nc(-c3ccc4ccc(-c5ccccc5)nc4c3)c3c(N)nccn32)C1 [Linsitinib] (partner 1 µM) . Reported relative viability?
Out: 0.654

---

# System: HCC-44
# assay: relative viability (nuclei count vs DMSO), 5 days (fraction); higher = more cells survive
# details: first compound 0.05 µM
assay endpoint: relative viability
Could you respond with only the numeric value?

compound	tgt	numeric result
CC1(C)CCC(c2ccc(Cl)cc2)=C(CN2CCN(c3ccc(C(=O)NS(=O)(=O)c4ccc(N[C@H](CCN5CCOCC5)CSc5ccccc5)c(S(=O)(=O)C(F)(F)F)c4)cc3)CC2)C1 [Navitoclax] + CC(=O)Nc1cccc(-n2c(=O)n(C3CC3)c(=O)c3c(Nc4ccc(I)cc4F)n(C)c(=O)c(C)c32)c1 [Trametinib] (partner 0.02 µM)	HCC-44	0.94

We now examine a further compound.
In: Find the measured relative viability: item CC1(C)CCC(c2ccc(Cl)cc2)=C(CN2CCN(c3ccc(C(=O)NS(=O)(=O)c4ccc(N[C@H](CCN5CCOCC5)CSc5ccccc5)c(S(=O)(=O)C(F)(F)F)c4)cc3)CC2)C1 [Navitoclax] + Cc1nc(NC(=O)N2CCC[C@H]2C(N)=O)sc1-c1ccnc(C(C)(C)C(F)(F)F)c1 [Alpelisib] (partner 2 µM) , target or system HCC-44.
Out: 0.849

---

Recorded relative viability, one value per entry.
# Tested on: NCI-H1792
# assay: relative viability (nuclei count vs DMSO), 5 days (fraction); higher = more cells survive
# details: first compound 1.265 µM
Could you respond with only the numeric value?

molecule	numeric result
O=C(O)c1ccc(-c2c[nH]c3ncc(-c4ccccc4)cc23)cc1C1CCCC1 + N=C(N)NC(=N)NCCc1ccccc1 [Phenformin] (partner 250 µM)	0.413

We now examine a further molecule.
In: Item under review: O=C(O)c1ccc(-c2c[nH]c3ncc(-c4ccccc4)cc23)cc1C1CCCC1 + NC(=O)Nc1cc(-c2cccc(F)c2)sc1C(=O)N[C@H]1CCCNC1 [AZD7762] (partner 0.2 µM) . Reported relative viability?
Out: 0.634
